Each entry below carries its measured IC50, system: Aster-A (Homo sapiens).
# value in µM; strip the unit string

{"columns": ["MOLECULE", "MEASUREMENT_UNIT", "ENDPOINT_RESULT"],
 "data": [
  ["CC12CCC3CC1CCC21C(=Nc2ccc(N4CCOCC4)cc21)O3 (racemic) [Compound 19a]", "µM", 0.77]
]}

Could you share which IC50 value was measured for CCCCCNc1ccc2c(c1)[C@@]13CC[C@@H]4C[C@@H](CC[C@@]41C)OC3=N2 [Compound 19c] ?
5.03

Could you share which IC50 value was measured for C[C@]12CC[C@@H]3C[C@H]1CC[C@@]21C(=Nc2ccccc21)O3 [Compound 15a] ?
7.17

Could you share which IC50 value was measured for C[C@]12CC[C@@H]3C[C@H]1CC[C@@]21C(=Nc2ccc(C(F)(F)F)cc21)O3 [Compound 15g] ?
1.6

Could you share which IC50 value was measured for C[C@]12CC[C@@H]3C[C@H]1CC[C@@]21C(=Nc2c(F)cc(Cl)cc21)O3 [Compound 15i] ?
3.63

Could you share which IC50 value was measured for C[C@]12CC[C@@H]3C[C@H]1CC[C@@]21C(=Nc2ccc(F)cc21)O3 [Compound 15d] ?
12.5

Could you share which IC50 value was measured for Cc1ccc2c(c1)[C@@]13CC[C@@H]4C[C@@H](CC[C@@]41C)OC3=N2 [Compound 15e] ?
6.03

----------
molecular target: Aster-A (Homo sapiens, UniProt Q96CP6); construct: Aster-A(359-547); GST (PreScission-cleavable) (N, cleaved yes); made in house; host or cells: E. coli OverExpress C41; assay: Fluorescence polarisation (FP) competition with NBD-cholesterol, Aster-A; type: binding; conditions: single dose, Dose = 10 µM
Sequence (Q96CP6 359-547): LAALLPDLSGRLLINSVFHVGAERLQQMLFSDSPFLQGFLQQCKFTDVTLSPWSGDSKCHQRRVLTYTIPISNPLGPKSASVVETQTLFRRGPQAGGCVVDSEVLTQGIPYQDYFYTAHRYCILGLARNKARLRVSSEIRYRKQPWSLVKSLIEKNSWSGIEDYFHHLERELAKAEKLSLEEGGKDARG
Attribute: inhibition at 10 µM
# value in %; strip the unit string

// worked examples, inhibition at 10 µM included
{"columns": ["COMPOUND", "ENDPOINT_RESULT"],
 "data": [
  ["CC12CCC3CC1CCC21C(=Nc2ccc(Cl)cc21)O3 (centres unmarked) [Compound 15c]", 50],
  ["CC(C)(C)OC(=O)N1CCN(c2ccc3c(c2)C24CCC5CC(CCC52C)OC4=N3)CC1 (centres unmarked) [Compound 19e]", 94],
  ["C[C@]12CC[C@@H]3C[C@H]1CC[C@@]21C(=Nc2ccc(Br)cc21)O3 (racemic) [Compound 15b]", 67],
  ["COc1ccc(-c2nc3c(s2)CC[C@@H]2C[C@H](O)CC[C@]32C)cc1 [Compound 8d]", -1],
  ["COc1ccc2c(c1)[C@]1(O)CC[C@@H]3C[C@H](O)CC[C@]3(C)C1=N2 [Compound 14b]", 8]
]}

Notebook entry, Aster-A (Homo sapiens, UniProt Q96CP6) assay: inhibition at 10 µM of COc1ccc2[nH]c3c(c2c1)CC[C@@H]1C[C@H](O)CC[C@]31C [Compound 10f] = ?
0

Notebook entry, Aster-A (Homo sapiens, UniProt Q96CP6) assay: inhibition at 10 µM of C[C@]12CC[C@@H]3C[C@H]1CC[C@@]21C(=Nc2ccc(C(F)(F)F)cc21)O3 [Compound 15g] = ?
79

Notebook entry, Aster-A (Homo sapiens, UniProt Q96CP6) assay: inhibition at 10 µM of Cc1ccc2c(c1)[C@]1(O)CC[C@@H]3C[C@H](O)CC[C@]3(C)C1=N2 [Compound 14a] = ?
3

Notebook entry, Aster-A (Homo sapiens, UniProt Q96CP6) assay: inhibition at 10 µM of C[C@]12CC[C@@H]3C[C@H]1CC[C@@]21C(=Nc2ccc(-c4ccccc4)cc21)O3 [Compound 21a] = ?
67

Notebook entry, Aster-A (Homo sapiens, UniProt Q96CP6) assay: inhibition at 10 µM of C[C@]12CC[C@@H]3C[C@H]1CC[C@@]21C(=Nc2ccc(F)cc21)O3 [Compound 15d] = ?
25

----------
molecular target: STARD1 (Homo sapiens, UniProt P49675); construct: STARD1(66-284); made in house; host or cells: E. coli BL21(DE3); assay: Fluorescence polarisation (FP) competition with NBD-cholesterol, STARD1; assay type: binding; details: single dose, Dose = 10 µM
Sequence (P49675 66-284): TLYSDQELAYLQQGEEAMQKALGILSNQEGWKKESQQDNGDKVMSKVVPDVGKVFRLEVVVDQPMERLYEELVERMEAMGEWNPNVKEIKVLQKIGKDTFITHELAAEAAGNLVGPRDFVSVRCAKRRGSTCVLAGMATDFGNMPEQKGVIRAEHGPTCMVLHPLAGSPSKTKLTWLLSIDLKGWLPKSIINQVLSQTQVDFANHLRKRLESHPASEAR
Okay, here is how we bin by inhibition at 10 µM: low = under 10%, middle = from 10% up to 20%, high = 20% and over

Before answering, review these 10 worked examples.
{"columns": ["COMPOUND", "CATEGORY"],
 "data": [
  ["COc1ccc2[nH]c3c(c2c1)CC[C@@H]1C[C@H](O)CC[C@]31C [Compound 10f]", "low"],
  ["C[C@]12CC[C@@H]3C[C@H]1CC[C@@]21C(=Nc2c(F)cc(Cl)cc21)O3 [Compound 15i]", "high"],
  ["C[C@]12CC[C@@H](O)C[C@H]1CCc1c2[nH]c2c(F)cc(Cl)cc12 [Compound 10i]", "low"],
  ["CCCCN(C)c1ccc2c(c1)[C@@]13CC[C@@H]4C[C@@H](CC[C@@]41C)OC3=N2 [Compound 19d]", "high"],
  ["CC(C)(C)OC(=O)N1CCN(c2ccc3c(c2)C24CCC5CC(CCC52C)OC4=N3)CC1 (stereo not drawn) [Compound 19e]", "high"],
  ["C[C@]12CC[C@@H](O)C[C@H]1CCC[C@]21Nc2ccccc2-n2cccc21", "high"],
  ["Cc1ccc2c(c1)[C@]1(O)CC[C@@H]3C[C@H](O)CC[C@]3(C)C1=N2 [Compound 14a]", "middle"],
  ["Cc1ccc2[nH]c3c(c2c1)CC[C@@H]1C[C@H](O)CC[C@]31C [Compound 10e]", "low"],
  ["COc1ccc2c(c1)[C@@]13CC[C@@H]4C[C@@H](CC[C@@]41C)OC3=N2 [Compound 15f]", "middle"],
  ["C[C@]12CC[C@@H](O)C[C@H]1CCC(=O)c1cc(Br)ccc1NC2=O [Compound 11b]", "low"]
]}

Given C[C@]12CC[C@@H]3C[C@H]1CC[C@@]21C(=Nc2ccc(F)cc21)O3 [Compound 15d] , name the class its inhibition at 10 µM places it in.
middle

Given C[C@]12CC[C@@H](O)C[C@H]1CCC[C@]21NC(=O)c2ccc(F)cc2N1 , name the class its inhibition at 10 µM places it in.
low

Given Cc1cc2nc3c(nc2cc1C)[C@@]1(C)CC[C@@H](O)C[C@H]1CC3 , name the class its inhibition at 10 µM places it in.
middle

Given C[C@@]12CC[C@H]3C[C@@H]1CC[C@]21C(=Nc2ccc(Br)cc21)O3 [(−)-15b] , name the class its inhibition at 10 µM places it in.
high

Given CCCCCNc1ccc2c(c1)[C@@]13CC[C@@H]4C[C@@H](CC[C@@]41C)OC3=N2 [Compound 19c] , name the class its inhibition at 10 µM places it in.
high

Given C[C@]12CC[C@@H]3C[C@H]1CC[C@@]21C(=Nc2ccc(C(F)(F)F)cc21)O3 [Compound 15g] , name the class its inhibition at 10 µM places it in.
high

Given C[C@]12CC[C@@H](O)C[C@H]1CCc1c2nc2ccccc2c1-c1ccc(F)cc1 , name the class its inhibition at 10 µM places it in.
low

Given COc1ccc(-c2nc3c(s2)CC[C@@H]2C[C@H](O)CC[C@]32C)cc1 , name the class its inhibition at 10 µM places it in.
high

Given Cc1ccc2[nH]c3c(c(=O)c2c1)C[C@@H]1C[C@H](O)CC[C@]31C , name the class its inhibition at 10 µM places it in.
low

Given COc1ccc2c(c1)C(=O)CC[C@@H]1C[C@H](O)CC[C@]1(C)C(=O)N2 [Compound 11d] , name the class its inhibition at 10 µM places it in.
low

Given COc1ccc2c(c1)C(=O)N[C@]1(CCC[C@@H]3C[C@H](O)CC[C@@]31C)N2 , name the class its inhibition at 10 µM places it in.
low

Given C[C@]12CC[C@@H]3C[C@H]1CC[C@@]21C(=Nc2ccccc21)O3 [Compound 15a] , name the class its inhibition at 10 µM places it in.
middle

----------
Target: Aster-B (Homo sapiens)
Sequence (Q3KR37 364-552): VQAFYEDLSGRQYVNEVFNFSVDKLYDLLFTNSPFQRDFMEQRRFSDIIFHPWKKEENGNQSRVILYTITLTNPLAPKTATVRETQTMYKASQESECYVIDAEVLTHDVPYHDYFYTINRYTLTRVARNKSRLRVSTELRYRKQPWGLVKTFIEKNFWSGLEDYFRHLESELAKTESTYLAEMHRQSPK
Attribute: IC50

// worked examples, IC50 included
{"columns": ["COMPOUND", "STUDY_TARGET", "IC50"],
 "data": [
  ["CC12CCC3CC1CCC21C(=Nc2c(Br)cc(C(F)(F)F)cc21)O3 (stereo not drawn) [Compound 15h]", "Aster-B (Homo sapiens)", "> 80 µM"],
  ["CC12CCC3CC1CCC21C(=Nc2ccc(Cl)cc21)O3 (stereo not drawn) [Compound 15c]", "Aster-B (Homo sapiens)", "> 80 µM"]
]}

Continue with the compound presented below.
Could you share which IC50 value was measured for CC12CCC3CC1CCC21C(=Nc2ccc(NCc4ccccc4)cc21)O3 (stereo not drawn) [Compound 19b] ?
> 80 µM
